readout-kind: melting point

Answer with the recorded melting point for the compound listed here: CCNc1nc2cc(Cl)c(Cl)cc2n1[C@H]1O[C@@H](CO)[C@H](O)[C@@H]1O
155 to 157 °C

Answer with the recorded melting point for the compound listed here: CCCNc1nc2cc(Cl)c(Cl)cc2n1[C@H]1O[C@@H](CO)[C@H](O)[C@@H]1O
231 to 233 °C

Answer with the recorded melting point for the compound listed here: OC[C@@H]1O[C@@H](n2c(NC3CC3)nc3cc(Cl)c(Cl)cc32)[C@@H](O)[C@H]1O
140 to 141 °C

----------
Items are presented alongside their recorded melting point.
Give your result in °C as a bare value.

- smiles-input: "OC[C@@H]1O[C@H](n2c(Br)nc3cc(Cl)c(Cl)cc32)[C@@H](O)[C@H]1O"
  melting point, °C: 169

Now let's try a different one.
Answer with the recorded melting point for the molecule listed here: CC(C)CNc1nc2cc(Cl)c(Cl)cc2n1[C@H]1O[C@@H](CO)[C@H](O)[C@@H]1O
136

----------
readout-kind: melting point (°C)
Give your result in °C as a bare value.

- smiles-input: "OC[C@@H]1O[C@H](n2c(NCc3ccccc3)nc3cc(Cl)c(Cl)cc32)[C@@H](O)[C@H]1O"
  readout-kind: "melting point"
  readout-unit: "°C"
  result-number: 123

Now let's try a different one.
Answer with the recorded melting point for the compound listed here: OC[C@@H]1O[C@H](n2c(NC3CCCC3)nc3cc(Cl)c(Cl)cc32)[C@@H](O)[C@H]1O
140

----------
readout-kind: melting point

A selection of reference data follows.
- molecule: "CC(C)(C)Nc1nc2cc(Cl)c(Cl)cc2n1[C@H]1O[C@@H](CO)[C@H](O)[C@@H]1O [Example 24]"
  readout-kind: "melting point"
  result: "118 to 120 °C"
- molecule: "CNc1nc2cc(Cl)c(Cl)cc2n1[C@H]1O[C@@H](CO)[C@H](O)[C@@H]1O [Example 33]"
  readout-kind: "melting point"
  result: "238 to 240 °C"

Answer with the recorded melting point for the molecule listed here: CC(=O)OC[C@@H]1O[C@H](n2c(Br)nc3cc(Cl)c(Cl)cc32)[C@@H](OC(C)=O)[C@H]1OC(C)=O [Example 1]
< 65 °C

Answer with the recorded melting point for the molecule listed here: C=CCNc1nc2cc(Cl)c(Cl)cc2n1[C@H]1O[C@@H](CO)[C@H](O)[C@@H]1O [Example 4]
220 °C (dec.)

Answer with the recorded melting point for the molecule listed here: CC(C)(C)Nc1nc2cc(Cl)c(Cl)cc2[nH]1 [Example 26]
219 to 221 °C

Answer with the recorded melting point for the molecule listed here: C#CCNc1nc2cc(Cl)c(Cl)cc2n1[C@H]1O[C@@H](CO)[C@H](O)[C@@H]1O [Example 9]
182 to 184 °C

Answer with the recorded melting point for the molecule listed here: CCCCNc1nc2cc(Cl)c(Cl)cc2n1[C@H]1O[C@@H](CO)[C@H](O)[C@@H]1O [Example 18]
220 to 222 °C

Answer with the recorded melting point for the molecule listed here: OC[C@@H]1O[C@H](n2c(NCCN3CCCC3)nc3cc(Cl)c(Cl)cc32)[C@@H](O)[C@H]1O [Example 22]
123 to 124 °C
